molecular target: recombinant human truncated SHIP1 (tSHIP1) (Homo sapiens, UniProt Q92835); construct: tSHIP1 (SHIP1, residues 397-864) was amplified from pET24TEV-tSHIP1; His tag; made in house; host or cells: E. coli BL21; assay: Malachite Green Phosphatase Release Assay (SHIP1 phosphatase activity); type: biochemical; conditions: bis-sulfonamide hybrids; 250 μM
Sequence (Q92835 397-864): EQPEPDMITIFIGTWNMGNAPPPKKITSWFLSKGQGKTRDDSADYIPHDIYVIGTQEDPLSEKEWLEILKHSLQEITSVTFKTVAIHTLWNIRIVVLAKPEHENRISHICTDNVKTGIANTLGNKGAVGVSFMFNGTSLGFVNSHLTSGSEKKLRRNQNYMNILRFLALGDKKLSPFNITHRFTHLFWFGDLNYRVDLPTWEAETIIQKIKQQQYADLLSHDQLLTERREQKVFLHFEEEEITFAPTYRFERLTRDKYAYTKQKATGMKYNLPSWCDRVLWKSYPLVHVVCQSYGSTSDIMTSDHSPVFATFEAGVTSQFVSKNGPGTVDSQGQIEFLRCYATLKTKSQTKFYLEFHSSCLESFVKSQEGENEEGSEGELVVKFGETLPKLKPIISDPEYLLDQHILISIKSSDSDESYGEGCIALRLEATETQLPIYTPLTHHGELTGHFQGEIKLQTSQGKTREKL
property measured: Malachite (SHIP1), 250 μM (%)
The reply should be a number in %, with the unit left off.

Please review the following examples before continuing.
compound	target or system	property measured	units	result value
CCCCNS(=O)(=O)c1ccc(NC(=O)[C@@H]2CCCN2S(=O)(=O)c2ccc(C(F)(F)F)cc2)cc1	recombinant human truncated SHIP1 (tSHIP1) (Homo sapiens, UniProt Q92835)	Malachite (SHIP1), 250 μM	%	80
O=C(CNS(=O)(=O)c1ccccc1C(F)(F)F)Nc1ccc(S(=O)(=O)N2CCCCC2)cc1	recombinant human truncated SHIP1 (tSHIP1) (Homo sapiens, UniProt Q92835)	Malachite (SHIP1), 250 μM	%	88
O=C(Nc1ccc(S(=O)(=O)N2CCCCC2)cc1)[C@@H]1CCCN1S(=O)(=O)c1ccccc1C(F)(F)F	recombinant human truncated SHIP1 (tSHIP1) (Homo sapiens, UniProt Q92835)	Malachite (SHIP1), 250 μM	%	112
O=C(Nc1ccc(S(=O)(=O)N2CCCCC2)cc1)[C@@H]1CCCN1S(=O)(=O)c1ccc(C(F)(F)F)cc1 (stereo in doubt)	recombinant human truncated SHIP1 (tSHIP1) (Homo sapiens, UniProt Q92835)	Malachite (SHIP1), 250 μM	%	109
Cc1sc(S(=O)(=O)N2CCCCC2)cc1NC(=O)[C@@H]1CCCN1S(=O)(=O)c1ccccc1C(F)(F)F	recombinant human truncated SHIP1 (tSHIP1) (Homo sapiens, UniProt Q92835)	Malachite (SHIP1), 250 μM	%	122

Data request: Can you look up the measured Malachite (SHIP1), 250 μM of Cc1sc(S(=O)(=O)N2CCCCC2)cc1NC(=O)[C@@H]1CCCN1S(=O)(=O)c1ccc(C(F)(F)F)cc1 for me?
Data returned: 103

Data request: What do you have for O=C(CNS(=O)(=O)c1ccc(C(F)(F)F)cc1)Nc1ccc(S(=O)(=O)N2CCCCC2)cc1 ?
Data returned: 63

Data request: Ok, now CCCCNS(=O)(=O)c1ccc(NC(=O)[C@@H]2CCCN2S(=O)(=O)c2ccccc2C(F)(F)F)cc1
Data returned: 84
